The reported measurements were obtained from ChEMBL document CHEMBL1949550.

- System: Nucleic Acid
- MEASUREMENT_DESCRIPTION: Binding affinity to human pre-hsa-mir-155 miRNA assessed as inhibition of dicer-catalysed (33P)-labelled pre-miRNA processing at 1 mM after 1 hr by PAGE analysis
- Assay type: nucleic-acid assay
- RECORDED_CONDITIONS: values are per cent of control
PROPERTY_NAME: residual activity (%)
Unit % implied. Number only.

Req: Look at this compound and give its reported residual activity. `COc1cccc2c1C(=O)c1c(O)c3c(c(O)c1C2=O)C[C@@](O)(C(=O)CO)C[C@@H]3O[C@H]1C[C@H](N)[C@H](O)[C@H](C)O1`
Resp: 83

Req: Try `N=C(N)c1ccc(-c2cc3ccc(C(=N)N)cc3[nH]2)cc1` next.
Resp: 100

Req: Try `COc1cccc2c1C(=O)c1c(O)c3c(c(O)c1C2=O)C[C@@](O)(C(C)=O)C[C@@H]3O[C@H]1C[C@H](N)[C@H](O)[C@H](C)O1` next.
Resp: 19

Req: Try `CN1CCN(c2ccc3[nH]c(-c4ccc5[nH]c(-c6ccc(O)cc6)nc5c4)nc3c2)CC1` next.
Resp: 40

Req: Try `Nc1ccc2cc3ccc(N)cc3nc2c1` next.
Resp: 93

* * *

- TARGET_OF_ASSAY: Nucleic Acid
- MEASUREMENT_DESCRIPTION: Displacement of ethidium bromide from human pre-hsa-mir-155 miRNA after 30 mins
- Type: nucleic-acid assay
PROPERTY_NAME: Kd

Req: Look at this compound and give its reported Kd. NC[C@@H]1O[C@H](O[C@H]2[C@@H](O)[C@H](O[C@@H]3[C@@H](O)[C@H](N)C[C@H](N)[C@H]3O[C@H]3O[C@H](CN)[C@@H](O)[C@H](O)[C@H]3N)O[C@@H]2CO)[C@H](N)[C@@H](O)[C@@H]1O (stereo in doubt; form 1) [FRAMYCETIN]
Resp: 6 µM

Req: Try `NC[C@@H]1O[C@@H](O[C@H]2[C@H](O)[C@@H](O[C@H]3O[C@H](CO)[C@@H](O)[C@H](N)[C@H]3O)[C@H](N)C[C@@H]2N)[C@@H](O)[C@H](O)[C@H]1O` next.
Resp: 141 µM

Req: Try `NC[C@H]1O[C@H](O[C@H]2[C@H](O)[C@@H](O[C@H]3O[C@H](CO)[C@@H](O)[C@H](N)[C@H]3O)[C@H](N)C[C@@H]2N)[C@H](N)[C@@H](O)[C@@H]1O` next.
Resp: 6 µM

Req: Try CN[C@@H]1[C@H](O[C@H]2[C@H](O[C@H]3[C@H](O)[C@@H](O)[C@H](NC(=N)N)[C@@H](O)[C@@H]3NC(=N)N)O[C@@H](C)[C@]2(O)CO)O[C@@H](CO)[C@H](O)[C@H]1O [DIHYDROSTREPTOMYCIN] next.
Resp: > 100 µM

Req: Try `NCC[C@H](O)C(=O)N[C@@H]1C[C@H](N)[C@@H](O[C@H]2O[C@H](CN)[C@@H](O)[C@H](O)[C@H]2O)[C@H](O)[C@H]1O[C@H]1O[C@H](CO)[C@@H](O)[C@H](N)[C@H]1O` next.
Resp: > 100 µM

Req: Try NC[C@@H]1O[C@H](O[C@H]2[C@@H](O)[C@H](O[C@@H]3[C@@H](O)[C@H](N)C[C@H](N)[C@H]3O[C@H]3O[C@H](CN)[C@@H](O)[C@H](O)[C@H]3N)O[C@@H]2CO)[C@H](N)[C@@H](O)[C@@H]1O (stereo in doubt; form 2) [FRAMYCETIN] next.
Resp: 11 µM

Req: Try `CCN[C@@H]1C[C@H](N)[C@@H](O[C@H]2OC(CN)=CC[C@H]2N)[C@H](O)[C@H]1O[C@H]1OC[C@](C)(O)[C@H](NC)[C@H]1O` next.
Resp: > 100 µM

Req: Try `NC[C@H]1O[C@H](O[C@H]2[C@H](O)[C@@H](O[C@H]3O[C@H](CO)[C@@H](O)[C@H](N)[C@H]3O)[C@H](N)C[C@@H]2N)[C@H](N)C[C@@H]1O` next.
Resp: > 100 µM

Req: Try `CN[C@@H]1[C@H](O)[C@H](NC)[C@H]2O[C@@]3(O)C(=O)C[C@@H](C)O[C@H]3O[C@@H]2[C@H]1O` next.
Resp: > 100 µM
